B1: Pistol ribozyme (parent)
chain: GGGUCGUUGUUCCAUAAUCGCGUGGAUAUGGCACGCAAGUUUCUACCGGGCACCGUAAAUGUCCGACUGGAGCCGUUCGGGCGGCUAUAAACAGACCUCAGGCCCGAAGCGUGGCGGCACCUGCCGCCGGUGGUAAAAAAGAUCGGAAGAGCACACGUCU

- Variants of: B1
- experiment.description: aptazyme ON/OFF ratio, guanine; higher = stronger switching; co-transcriptional cleavage with and without guanine
measurement.kind: aptazyme ON/OFF ratio
The reply should be a number, written without any unit.

Below: 4 variants and their reported aptazyme ON/OFF ratio.
{"columns": ["mutation.name", "aptazyme ON/OFF ratio"],
 "data": [
  ["U7C U8G G9A U10A U11C C12G", 1.25],
  ["U7C G9C U10C U11G C13G", 1.05],
  ["U7G U8C G9C U10A U11A C13U", 1.23],
  ["U8A G9C U11A C13G", 1.06]
]}

-- ask Read off the recorded aptazyme ON/OFF ratio for U7C G9A U10C U11C C13G
-- reply 1.02

Taken from the RNAGym collection of RNA variant scans (doi:10.1021/acssynbio.7b00057).
